Biological target: HIV-1 Env of isolate MGRM-G-013 (subtype G), on pseudovirus (HIV-1)
Assay: cell-based or functional assay
Hi there, I'd appreciate the recorded IC50 (µg/mL), neutralization of pseudovirus for every entry that follows.
The answer is to be given in µg/mL; state only the numeric part.

Recorded result, PGT-126 (antibody, V domains shown) VH: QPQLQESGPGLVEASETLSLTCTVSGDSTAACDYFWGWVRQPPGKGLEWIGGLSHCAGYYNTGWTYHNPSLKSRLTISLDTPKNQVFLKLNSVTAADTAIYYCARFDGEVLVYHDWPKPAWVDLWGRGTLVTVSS VL: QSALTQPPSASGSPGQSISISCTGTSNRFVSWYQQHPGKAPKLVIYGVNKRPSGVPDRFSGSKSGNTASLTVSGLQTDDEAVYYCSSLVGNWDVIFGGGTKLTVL , IC50 (µg/mL), neutralization of pseudovirus: 48.8

Entry PGT-128 (antibody, V domains shown) VH: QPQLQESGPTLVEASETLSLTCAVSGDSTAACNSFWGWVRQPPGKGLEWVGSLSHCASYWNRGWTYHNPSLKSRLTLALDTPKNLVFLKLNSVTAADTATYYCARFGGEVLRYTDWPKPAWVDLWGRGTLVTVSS VL: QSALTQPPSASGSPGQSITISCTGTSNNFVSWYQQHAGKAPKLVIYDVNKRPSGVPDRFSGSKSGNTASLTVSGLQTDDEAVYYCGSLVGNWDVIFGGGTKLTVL ; IC50 (µg/mL), neutralization of pseudovirus = 0.995
